This collection of values is drawn from patent US11814445B2.

molecular target: human PCSK9 / human LDLR EGFa domain (Homo sapiens); assay: TR-FRET assay of inhibition of the PCSK9-LDLR protein-protein interaction; details: 20 nM human PCSK9, 20 nM human LDLR EGFa domain, 2 hours room temperature
Sequence (Q8NBP7 153-692): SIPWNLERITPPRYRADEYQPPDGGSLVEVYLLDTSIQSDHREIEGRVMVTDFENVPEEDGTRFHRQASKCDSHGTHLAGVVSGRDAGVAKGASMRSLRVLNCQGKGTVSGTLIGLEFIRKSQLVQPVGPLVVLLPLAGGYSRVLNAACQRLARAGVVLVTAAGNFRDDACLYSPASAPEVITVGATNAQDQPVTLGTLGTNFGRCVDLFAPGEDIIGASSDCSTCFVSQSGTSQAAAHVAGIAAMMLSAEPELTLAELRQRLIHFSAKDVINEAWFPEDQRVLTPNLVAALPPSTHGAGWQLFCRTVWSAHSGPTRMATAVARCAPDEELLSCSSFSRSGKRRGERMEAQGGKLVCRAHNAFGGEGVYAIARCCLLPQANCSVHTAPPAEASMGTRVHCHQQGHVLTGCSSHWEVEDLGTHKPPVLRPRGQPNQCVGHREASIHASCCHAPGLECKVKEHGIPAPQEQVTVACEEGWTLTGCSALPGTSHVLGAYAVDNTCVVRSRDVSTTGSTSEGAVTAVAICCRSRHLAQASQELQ
Numbered stars: 1 amine (or outer) side, 2 acyl side, 3 side chain; on linkers, the order of the positions; unused ones are H or OH. Bridge positions count the residues as written; N and C are the ends. Square brackets hold non-standard residues; d marks the D form. Peptide text beside a SMILES is read from it. Trp(5-F) = N[C@@H](Cc1c[nH]c2ccc(F)cc12)C(=O)O; X1 = O=C(CCSCc1cccc(CSCCN[*:1])c1)[*:2]; mXylylene = c1cc(C[*:1])cc(C[*:2])c1; αMeP = C[C@@]1(C(=O)O)CCCN1; hSer = N[C@@H](CCO)C(=O)O; Mpa = O=C(O)CCS
Entries and their IC50

[[record]]
compound = "C[C@@H]1NC(=O)[C@@H]2CCCN2C(=O)[C@H](Cc2c[nH]c3ccc(F)cc23)NC(=O)[C@H](Cc2c[nH]c3ccc(F)cc23)NC(=O)[C@@H](C)NC(=O)[C@H](CCCCN)NC(=O)CCSCc2cccc(c2)CSCCNC(=O)[C@]2(C)CCCN2C(=O)[C@H](Cc2ccc(O)cc2)NC1=O [Compound 003] (cyclo(AY[αMeP][X1]K[dA][Trp(5-F)][Trp(5-F)]P))"
recorded_result = "1000 to 12100 nM"


Give its IC50 value. Item: NCCCC[C@@H]1NC(=O)CCSCc2cccc(c2)CSC[C@@H](C(N)=O)NC(=O)[C@@H]2CCCN2C(=O)[C@H](Cc2ccc(O)cc2)NC(=O)[C@H](Cc2cnc[nH]2)NC(=O)[C@H](CCO)NC(=O)[C@H](Cc2c[nH]c3ccc(F)cc23)NC(=O)[C@H](Cc2c[nH]c3ccc(F)cc23)NC(=O)CNC1=O [Compound 117] ([Mpa]KG[Trp(5-F)][Trp(5-F)][hSer]HYPC-NH2; linker 1-10 via mXylylene)
100 to 1000 nM
